Test system: M19-MEL melanoma
method: NCI tumour cell line growth inhibition, 48 h
property measured: TGI (µM)
# value in µM; strip the unit string

Below are worked cases with known answers.
- compound: "CCCCNCC(=O)O[C@]1(CC)C(=O)OCc2c1cc1n(c2=O)Cc2cc3ccccc3nc2-1"
  target entity: "M19-MEL melanoma"
  TGI, µM: 6.21
- compound: "Brc1cccc(C2SCc3nc4ccccc4n32)c1 (stereo unspecified)"
  target entity: "M19-MEL melanoma"
  TGI, µM: 49.1

// moving on: another record for TGI
Task item: Consider the compound shown here: O=S(=O)(Sc1ccc(Cl)cc1)c1ccc(Cl)cc1 What is its recorded TGI?
Reply: 35.6

---

Test system: HCT-15 colon
method: NCI tumour cell line growth inhibition, 48 h
property measured: TGI

- molecule: "Cn1cnc2nc(Cl)nc(NC(C)(C)C(C)(C)O)c21"
  TGI: "> 100 µM"

Task item: Consider the molecule shown here: CN(C)CCNC(=O)c1cccc2c(NCC(=O)O)c3ccccc3nc12 What is its recorded TGI?
Reply: > 100 µM

Task item: Consider the molecule shown here: O=C(c1ccccc1)c1ccc(COc2ccc(C(c3c(O)c4ccccc4oc3=O)c3c(O)c4ccccc4oc3=O)cc2)cc1 What is its recorded TGI?
Reply: > 100 µM

Task item: Consider the molecule shown here: O=C(NN1C(=O)CSC12CCCCC2)c1[nH]c2ccc(F)cc2c1-c1ccccc1 What is its recorded TGI?
Reply: > 100 µM

Task item: Consider the molecule shown here: O=C(O)C/C=C/CC(=O)O What is its recorded TGI?
Reply: > 100 µM

Task item: Consider the molecule shown here: N#CC(C(=O)CCC(=O)Nc1cccc(Cl)c1)c1ccccc1 (stereo unspecified) What is its recorded TGI?
Reply: > 100 µM

Task item: Consider the molecule shown here: CCCCCCNC(=O)c1cnc(Cl)cn1 What is its recorded TGI?
Reply: 7.25 µM

Task item: Consider the molecule shown here: COc1ccc2cc(-c3ccoc(=O)c3-c3cc(OC)c(OC)c(OC)c3)ccc2c1 What is its recorded TGI?
Reply: > 100 µM

Task item: Consider the molecule shown here: Nc1c2c(nc3ccccc13)CCCCCC2 What is its recorded TGI?
Reply: > 100 µM

Task item: Consider the molecule shown here: C=CC(=O)N1CCN(c2ccc3cccc(NC(=O)c4cnc(C)cn4)c3n2)CC1 What is its recorded TGI?
Reply: 24.6 µM

Task item: Consider the molecule shown here: COc1nc(N)c(NC2OC(CO)C(O)C2O)c(=O)[nH]1 (stereo unspecified) What is its recorded TGI?
Reply: > 100 µM

---

Tested on: NCI/ADR-RES ovarian
method: NCI tumour cell line growth inhibition, 48 h
# reported TGI; entries follow

Below are worked cases with known answers.
- compound: "Cc1ccc(NC(=O)/C=C/c2ccccc2)c(C(N)=O)c1"
  property measured: "TGI"
  value observed: "18.2 µM"
- compound: "CC1=C(N2CC2)C(=O)c2nc3n(c2C1=O)CCC3OC(=O)CCl (centres undefined)"
  property measured: "TGI"
  value observed: "0.0862 µM"
- compound: "CC1C(O)C2(Oc3cc4c(c5c3[C@@H](CC5O)[C@H]2C)CCC2Cc3nc5c(nc3C[C@@]42C)CC2CCC3C4=C[C@H]6O[C@@]7(O[C@@](C)(CO)C[C@@H]7O)C(C)[C@@]6(O)[C@]4(C)[C@@H](O)CC3[C@]2(C)C5)OC1(C)C (some centres undefined)"
  property measured: "TGI"
  value observed: "> 3.67 µM"

// moving on: another record for TGI
Task item: Consider the compound shown here: Clc1cc(Cl)c(OCC#CI)cc1Cl What is its recorded TGI?
Reply: 9.66 µM
